Kindly supply the reported pIC50 values for the records listed here.
- targetEntity: Bromodomain-containing protein 4 (Homo sapiens)
- assayMethodText: Inhibition of human BRD4 BD2 (342 to 460 residues) at 30 uM preincubated for 30 mins followed by substrate addition measured after 30 mins by TR-FRET assay
pIC50: −log10 of the molar value.

{"compound": "COc1cc(C(=O)Nc2c(C)noc2C)cc(-c2ccccc2)c1", "pIC50": "< 4.70"}
{"compound": "CC1C(=O)Nc2ccccc2N1C(=O)c1cccc(-c2ccccc2)c1 (stereo not drawn)", "pIC50": "< 4.70"}

Consider the record given below.
Challenge: For COc1cc(C(=O)N2c3ccccc3NC(=O)C2C)cc(-c2ccccc2)c1 (stereo not drawn) , what is its reported pIC50?
Response given: < 4.70
